From: patent EP2253629A1

protocol.description: solubility in water
Assay type: physicochemical
value.kind: solubility

compound	result
CCN(CC)CCNC(=O)c1c(C)[nH]c(/C=C2\C(=O)Nc3ccc(F)cc32)c1C [sunitinib base form VIII]	< 1000 µg/mL
